Just for reference, ChEMBL document CHEMBL1201862 is where these values come from.

System: HOP-92
assayName: NCI tumour cell line growth inhibition, 48 h
Active and inactive are the calls of the source. Rule as the data show it: active = GI50 up to about 1.1 µM and inactive = higher.
Give one outcome, nothing more. List: YES (active), NO (inactive)

1. COc1cc(C2CC(C)(Nc3ccccc3)Oc3cc4c(cc32)OCO4)cc(OC)c1OC (centres undefined): NO
2. CCC1([N+](=O)[O-])CC2C=CC1C2 (centres undefined): NO
3. C=C1CC/C=C(\C)CCC[C@H](C)[C@@H](O)[C@@H]2OC(=O)C(=C)[C@@H]2C[C@H]1O: NO
4. C[N+]1(C)C(c2ccccc2)C(=O)O[B@-]1(F)c1ccccc1 (some centres undefined): NO
5. O=C1/C(=C/c2ccc([N+](=O)[O-])cc2)CNC/C1=C\c1ccc([N+](=O)[O-])cc1: NO
6. COc1cc(C2c3cc4c(cc3OC(NNc3ccccc3)C2C)OCO4)cc(OC)c1OC (centres undefined): NO
7. CC[C@H](C)[C@H]1NC(=O)[C@@H](NC(=O)[C@@H](CC(C)C)N(C)C(=O)C2CCCN2C(=O)[C@H](C)O)[C@@H](C)OC(=O)[C@H](Cc2ccccc2)N(C)C(=O)[C@@H]2CCCN2C(=O)[C@H](CC(C)C)NC(=O)[C@@H](C)C(=O)[C@H](C(C)C)OC(=O)C[C@@H]1O (some centres undefined): YES
8. O=C1CC(O)c2c(Br)sc(Br)c21 (centres undefined): NO
9. Cc1cc(=O)oc2cc3oc(N(C)c4ccccc4)nc(=O)c3cc12: NO
10. COc1ccc2c(c1)/C(=C(\C(Cl)=C(Cl)Cl)[N+](=O)[O-])N2: NO

query: Write down the call the test reported for this compound. Item: CC(C)(C)c1c2c(c(C(C)(C)C)c3c1OCN(Cc1ccccc1)C3)OCN(Cc1ccccc1)C2
result: NO

query: Write down the call the test reported for this compound. Item: CCCC(=O)NC(Nc1ccc(S(=O)(=O)Nc2ccc(OC)nn2)cc1)(C(F)(F)F)C(F)(F)F
result: NO

query: Write down the call the test reported for this compound. Item: O=c1oc2ccccc2c(O)c1C(C/C(CCN1CCCC1)=N/O)c1ccccc1 (centres undefined)
result: NO

query: Write down the call the test reported for this compound. Item: N#Cc1c(N2CCCC2)ncn(-c2ccccc2)c1=O
result: NO

query: Write down the call the test reported for this compound. Item: CC(C)(C)C1CCC2c3c([nH]c4ccccc34)C3C(=O)N(c4ccccc4[N+](=O)[O-])C(=O)C3C2C1 (centres undefined)
result: NO

* * *

Test system: T47D
assayName: NCI tumour cell line growth inhibition, 48 h
Active and inactive are the calls of the source. Rule as the data show it: active = GI50 up to about 1.1 µM and inactive = higher.
parameterMeasured: GI50

1) Cc1nn(C(=O)c2ccccc2O)c2c1C(c1ccccc1)SC(=N)N2 (stereo unspecified): 5.43 µM (inactive)

Data point: Cn1c(=O)c2[nH]c(N=O)nc2n(C)c1=O ; GI50 = > 100 µM (inactive)

Data point: CCOC(=O)CCN1C(=O)C(=O)N(c2ccc(OC)cc2)C1=S ; GI50 = > 100 µM (inactive)

Data point: O=C(NCc1ccccc1)c1cc2ccccc2o/c1=N\c1ccccc1F ; GI50 = 16.6 µM (inactive)

Data point: Oc1cccc(/C=N/N=c2/[nH][nH]/c(=N/N=C/c3cccc(O)c3)c3ccccc23)c1 ; GI50 = 15.7 µM (inactive)

Data point: Cc1cn(C2CC(O)C(Cn3cc(Cn4ncc(=O)[nH]c4=O)nn3)O2)c(=O)[nH]c1=O (stereo unspecified) ; GI50 = > 100 µM (inactive)

Data point: CC(C)(C)c1c2c(c(C(C)(C)C)c3c1OCN(Cc1ccccc1)C3)OCN(Cc1ccccc1)C2 ; GI50 = 31.7 µM (inactive)

Data point: COc1ccc(CSc2ccccc2Cn2cccc2)cc1OC ; GI50 = 35.2 µM (inactive)

Data point: C/C(=N/c1[nH]c(=O)cc2c1C(=O)CC2)N(C)C ; GI50 = > 200 µM (inactive)

Data point: C[C@@H](Oc1ccc(Oc2cnc3ccc(Cl)cc3n2)cc1)C(=O)O [R(+)XK469] ; GI50 = > 100 µM (inactive)

Data point: CCC(C=O)P1(=O)OC(C)(C)CN1C(C)(C)C (stereo unspecified) ; GI50 = 31.6 µM (inactive)
